# Study system: vasopressin-1 receptor (Rattus norvegicus, UniProt P30560)
# Construct: cell membranes prepared from rat liver; from tissue; host or cells: rat liver membranes
# Sequence (P30560 whole entry): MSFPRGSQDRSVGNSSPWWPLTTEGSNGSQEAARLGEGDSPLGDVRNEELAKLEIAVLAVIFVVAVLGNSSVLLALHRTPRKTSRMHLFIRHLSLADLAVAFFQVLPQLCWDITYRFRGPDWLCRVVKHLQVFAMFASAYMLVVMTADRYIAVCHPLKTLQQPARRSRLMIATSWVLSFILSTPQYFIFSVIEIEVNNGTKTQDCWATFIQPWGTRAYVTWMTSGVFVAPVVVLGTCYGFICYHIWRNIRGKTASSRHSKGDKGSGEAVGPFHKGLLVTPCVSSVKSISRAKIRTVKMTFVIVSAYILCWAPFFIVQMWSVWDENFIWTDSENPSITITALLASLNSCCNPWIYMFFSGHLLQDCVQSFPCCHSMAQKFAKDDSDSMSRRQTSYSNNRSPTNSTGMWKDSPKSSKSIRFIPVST
# Experiment: 3H-vasopressin-1 antagonist binding inhibition, rat liver cell membranes
# Condition set: Re-complexed
Ends that are not written are not given here.
Result type: % Inhibition at 1 μM Vasopressin-1 Receptor (Table 30) (%)
Report as a plain number; the unit % is understood.

[
  {
    "Substance": "Ala-Tyr-Ile-Gln-Asn-Ala-Ala-Leu-Gly-Cys-NH2 (AYIQNAALGC-NH2; not fully specified (bridges); printed as Ala-Tyr-Ile-Gln-Asn-Ala-Ala-Leu-Gly-Cys-NH2; also: oxorhenium(V) N3S1 metal chelate (Re=O)) [SEQ ID NO:150]",
    "Result": 0
  }
]

Then this substance:
Ask: Item Ala-Tyr-Ile-Gln-Cys-Asn-Ala-Pro-Leu-Gly-NH2 (AYIQCNAPLG-NH2; not fully specified (bridges); printed as Ala-Tyr-Ile-Gln-Cys-Asn-Ala-Pro-Leu-Gly-NH2; also: oxorhenium(V) N3S1 metal chelate (Re=O)) [SEQ ID NO:156] has what recorded % Inhibition at 1 μM Vasopressin-1 Receptor (Table 30)?
Reply: 0

---

Attribute: % Inhibition at 1 μM Oxytocin Receptor (Table 30)
# Study system: oxytocin receptor (Rattus norvegicus)
# Construct: cell membranes prepared from rat uterus; from tissue; host or cells: rat uterus membranes
# Sequence (P70536 1-388): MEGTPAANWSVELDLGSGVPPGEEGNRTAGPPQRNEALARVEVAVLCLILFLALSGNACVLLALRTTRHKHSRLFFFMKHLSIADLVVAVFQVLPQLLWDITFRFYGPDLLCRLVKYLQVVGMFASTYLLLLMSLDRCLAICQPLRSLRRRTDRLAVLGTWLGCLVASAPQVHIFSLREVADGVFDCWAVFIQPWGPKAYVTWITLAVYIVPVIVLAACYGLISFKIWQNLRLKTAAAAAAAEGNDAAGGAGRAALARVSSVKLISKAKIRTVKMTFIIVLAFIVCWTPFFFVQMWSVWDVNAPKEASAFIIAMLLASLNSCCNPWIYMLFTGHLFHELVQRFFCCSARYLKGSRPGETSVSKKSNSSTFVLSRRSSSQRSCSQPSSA
# Experiment: 3H-oxytocin binding inhibition, rat uterus cell membranes
# Condition set: 1 μM; rat uterus membranes; Re-complexed
Ends that are not written are not given here.
Give just the number in %; leave the unit off.

[
  {
    "Substance": "Ala-Tyr-Cys-Ile-Gln-Asn-Ala-Pro-Leu-Gly-NH2 (AYCIQNAPLG-NH2; not fully specified (bridges); printed as Ala-Tyr-Cys-Ile-Gln-Asn-Ala-Pro-Leu-Gly-NH2; also: oxorhenium(V) N3S1 metal chelate (Re=O)) [SEQ ID NO:158]",
    "Result": 6
  },
  {
    "Substance": "Ala-Tyr-Ile-Cys-Gln-Asn-Ala-Pro-Leu-Gly-NH2 (AYICQNAPLG-NH2; not fully specified (bridges); printed as Ala-Tyr-Ile-Cys-Gln-Asn-Ala-Pro-Leu-Gly-NH2; also: oxorhenium(V) N3S1 metal chelate (Re=O)) [SEQ ID NO:157]",
    "Result": 0
  }
]

Proceeding to the next substance to report its % Inhibition at 1 μM Oxytocin Receptor (Table 30).
Ask: Dear colleague, I am looking for the recorded % Inhibition at 1 μM Oxytocin Receptor (Table 30) of the following substance: Ala-Tyr-Ile-Gln-Asn-Ala-Ala-Cys-Leu-Gly-NH2 (AYIQNAACLG-NH2; not fully specified (bridges); printed as Ala-Tyr-Ile-Gln-Asn-Ala-Ala-Cys-Leu-Gly-NH2; also: oxorhenium(V) N3S1 metal chelate (Re=O)) [SEQ ID NO:152]
Reply: 0
